Test: Rodent pharmacokinetics, male CD1 mouse, plasma PK
Assay type: in vivo
Conditions: PO 10 mg/kg vs IV 5 mg/kg, mesylate salt, read-out: F (oral bioavailability)
MEASURED QUANTITY: bioavailability

Fill blank: measured bioavailability of the compound c1cc(-c2nc(N3CCOCC3)c3oc4ncc(CN5C[C@@H]6C[C@H]5CO6)cc4c3n2)c2cc[nH]c2c1 is ____. 73.8%

###

Test: Rodent pharmacokinetics, male CD1 mouse, plasma PK
Type: in vivo
Conditions: PO 10 mg/kg vs IV 5 mg/kg, HCl salt, read-out: F (oral bioavailability)
MEASURED QUANTITY: bioavailability (%)
Numeric only. Scale: %

Fill blank: measured bioavailability of the molecule c1cc(-c2nc(N3CCOCC3)c3oc4ncc(CN5CCCCC5)cc4c3n2)c2cc[nH]c2c1 [Example I in WO2011/021038, reference compound] is ____. 29.6

Taken from patent US11291669B2.
